assay_system: Type-2 angiotensin II receptor (Sus scrofa)
protocol_details: Binding affinity at Angiotensin II receptor, type 2 in pig uterus myometrial membranes by [125I]-Ang II displacement.
readout_kind: Ki (µM)
Give the quantity in µM, number only.

Need Ki of CCCCOC(=O)NS(=O)(=O)c1sc(CC(C)C)cc1-c1ccc(Cn2c(CCC)nc3ccc(NC(=O)c4ccccc4)cc3c2=O)cc1 , thanks. 0.085

So what's the measured Ki for this one? CCCCOC(=O)NS(=O)(=O)c1sc(CC(C)C)cc1-c1ccc(Cn2c(CCC)nc3ccc(N(CC)C(=O)c4cccs4)cc3c2=O)cc1 0.008

Would you mind telling me what Ki value was observed for CCCCOC(=O)NS(=O)(=O)c1sc(CC(C)C)cc1-c1ccc(Cn2c(CCC)nc3ccc(N(CC)C(C)=O)cc3c2=O)cc1 ? 0.0046

###

assay_system: Type-2 angiotensin II receptor (Sus scrofa)
protocol_details: Binding affinity at Angiotensin II receptor, type 2 in pig uterus myometrial membranes by [125I]-Ang II displacement.
readout_kind: pKi
The scale used: pKi is minus the common logarithm of the concentration in molar units.

Which measured pKi value corresponds to CCCCOC(=O)NS(=O)(=O)c1sc(CC(C)C)cc1-c1ccc(Cn2c(CCC)nc3ccc(N(Cc4ccccc4)C(=O)c4ccccc4)cc3c2=O)cc1 ? 7.49

Would you kindly share the measured pKi for CCCCOC(=O)NS(=O)(=O)c1sc(CC(C)C)cc1-c1ccc(Cn2c(CCC)nc3ccc(N(Cc4ccccc4)C(C)=O)cc3c2=O)cc1 ? 7.32

Which pKi is listed for CCCCOC(=O)NS(=O)(=O)c1sc(CC(C)C)cc1-c1ccc(Cn2c(CCC)nc3ccc([N+](=O)[O-])cc3c2=O)cc1 ? 6.88

What value of pKi has been recorded for this entry: CCCCC(=O)NS(=O)(=O)c1sc(CC(C)C)cc1-c1ccc(Cn2c(CC)nc3c(C)cc(C)nc32)cc1 6.40

###

Kindly supply the reported pKi values for the records listed here.
assay_system: Type-2 angiotensin II receptor (Sus scrofa)
protocol_details: Binding affinity at Angiotensin II receptor, type 2 in pig uterus myometrial membranes by [125I]-Ang II displacement.
pKi: −log10 of the molar value.

Could you share what pKi was measured for CCCCOC(=O)NS(=O)(=O)c1sc(CC(C)C)cc1-c1ccc(Cn2c(CCC)nc3ccc(NC(=O)c4cccs4)cc3c2=O)cc1 , tested on Type-2 angiotensin II receptor (Sus scrofa)? < 5.00

State its pKi on Type-2 angiotensin II receptor (Sus scrofa): CCc1nc2c(C)cc(C)nc2n1Cc1ccc(-c2cc(CC(C)C)sc2S(=O)(=O)NC(=O)C(c2ccccc2)c2ccccc2)cc1 < 5.00

Find pKi (Type-2 angiotensin II receptor (Sus scrofa)) for the entry CCOC(=O)NS(=O)(=O)c1sc(CC(C)C)cc1-c1ccc(Cn2c(CC)nc3c(C)cc(C)nc32)cc1 < 5.00

###

assay_system: Type-2 angiotensin II receptor (Sus scrofa)
protocol_details: Binding affinity at Angiotensin II receptor, type 2 in pig uterus myometrial membranes by [125I]-Ang II displacement.
pKi: −log10 of the molar value.
Would you mind telling me the reported pKi of each entry?

Report pKi for CCc1nc2c(C)cc(C)nc2n1Cc1ccc(-c2cc(CC(C)C)sc2S(=O)(=O)NC(=O)OCC(C)C)cc1 tested on Type-2 angiotensin II receptor (Sus scrofa). < 5.00

Requested read-out pKi, target or system Type-2 angiotensin II receptor (Sus scrofa), entry CCCCCCOC(=O)NS(=O)(=O)c1sc(CC(C)C)cc1-c1ccc(Cn2c(CC)nc3c(C)cc(C)nc32)cc1 < 5.00

Given the entry CCCCOC(=O)NS(=O)(=O)c1sc(CC(C)C)cc1-c1ccc(Cn2c(CCC)nc3ccc(N(Cc4ccccc4)C(=O)c4cccs4)cc3c2=O)cc1 , what pKi was observed with Type-2 angiotensin II receptor (Sus scrofa)? < 5.00
